Molecular target: Alpha-1A adrenergic receptor (Homo sapiens) (UniProt P35348)
Sequence (whole entry): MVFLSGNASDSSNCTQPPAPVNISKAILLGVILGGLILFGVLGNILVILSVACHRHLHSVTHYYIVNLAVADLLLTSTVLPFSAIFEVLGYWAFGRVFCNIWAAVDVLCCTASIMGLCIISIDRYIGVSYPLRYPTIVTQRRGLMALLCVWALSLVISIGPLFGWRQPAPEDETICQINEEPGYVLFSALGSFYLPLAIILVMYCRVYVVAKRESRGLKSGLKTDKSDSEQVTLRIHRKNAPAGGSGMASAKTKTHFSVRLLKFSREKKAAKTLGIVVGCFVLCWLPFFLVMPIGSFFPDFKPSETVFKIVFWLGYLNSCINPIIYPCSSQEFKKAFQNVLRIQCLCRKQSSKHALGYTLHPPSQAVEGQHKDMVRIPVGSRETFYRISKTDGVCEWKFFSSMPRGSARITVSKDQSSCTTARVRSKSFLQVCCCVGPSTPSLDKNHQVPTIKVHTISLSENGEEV
Assay: SafetyScreen: alpha1A Human Adrenoceptor GPCR Binding Antagonist Radioligand LeadHunter Assay, catalogue number: 2338
Conditions: Test compound concentration 10.0 uM
measure.name: inhibition
Put your answer as a value accompanied by its unit after it.

// known answers, use as guide
CNCc1cc(-c2cc3c(N[C@@H](c4ccc5c(c4)S(=O)(=O)CCC5)C(C)C)ncnc3[nH]2)co1 50%
CNC(=O)Cn1cc(-c2cc3c(N[C@@H](c4ccc5c(c4)S(=O)(=O)CCC5)C(C)C)ncnc3[nH]2)cn1 11%
C[C@H](C(=O)O)[C@@H](NC(=O)c1ncnc2[nH]ccc12)c1ccc(Br)cc1 -8%
CC(C)[C@@H](Nc1ncnc2[nH]c(-c3cnn(C)c3C#N)cc12)c1ccc2c(n1)OCCO2 11%
COc1ccc([C@H](Cc2nnn[nH]2)NC(=O)c2ncnc3[nH]ccc23)cc1 -7%

Next compound, please.
The compound listed as Cc1nn(C)cc1-c1cc2c(N[C@H](c3ccc4c(c3)S(=O)(=O)CCC4)C(C)C)ncnc2[nH]1 shows inhibition equal to 8%

Data provenance: ChEMBL document CHEMBL5442334
